Target desc: Mannose-6-phosphate isomerase (Homo sapiens)
Assay notes: inhibitors of human PMI, primary screen, biochemical, fluorescence intensity, coupled assay (AID 1209);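 also: plate controls were DMSO vehicle for no effect and wells lacking substrate for full effect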
Experimental parameters: purified PMI enzyme, at 20 µM
In all, about 190,000 compounds went through this assay and about 810 (0.43%) were called active. Rule as the data show it: active = inhibition above about 50%; inactive = the rest. What follows is part of a selection rich in actives, with near analogues and random picks from the rest.
Classes used: true (1) (active), false (0) (inactive)

Compound	Label class
CC1CCCN(CCC(=O)Nc2ccc(Br)cc2)C1 (stereo not given)	false (0)
Cc1c(Nc2cc(N3CCOCC3)c3nonc3c2[N+](=O)[O-])c(=O)n(-c2ccccc2)n1C	false (0)
COc1ccc(C(=O)CCN2CCN(c3ccccc3F)CC2)cc1	false (0)
Cc1c(Nc2cc(N3CCCCCC3)c3nonc3c2[N+](=O)[O-])c(=O)n(-c2ccccc2)n1C	true (1)
O=C(CCN1CCN(c2ccccc2F)CC1)Nc1ccccc1F	false (0)

====

Target desc: Mannose-6-phosphate isomerase (Homo sapiens)
Assay notes: inhibitors of human PMI, primary screen, biochemical, fluorescence intensity, coupled assay (AID 1209);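 also: plate controls were DMSO vehicle for no effect and wells lacking substrate for full effect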
Experimental parameters: purified PMI enzyme, at 20 µM
The whole screen tested about 190,000 compounds, of which about 810 (0.43%) were called active. No stated cut-off is given here; in the data, active means inhibition above about 50%; inactive means the rest. The full list was thinned out, with actives kept by preference.
Classes used: active, inactive

Compound	Target desc	Label class
O=C(CN1CCCCC1)NCCNc1ccc(C(F)(F)F)cc1[N+](=O)[O-]	Mannose-6-phosphate isomerase (Homo sapiens)	inactive
CC(C)(C(=O)O)n1cncn1	Mannose-6-phosphate isomerase (Homo sapiens)	inactive
Cc1ccc(-c2nnc3n2N=C(c2ccc(Br)cc2)CS3)cc1	Mannose-6-phosphate isomerase (Homo sapiens)	inactive
CCc1nc(SC)[nH]c(=O)c1C	Mannose-6-phosphate isomerase (Homo sapiens)	inactive
COc1cccc(Nc2nc(CC(C)=O)ns2)c1	Mannose-6-phosphate isomerase (Homo sapiens)	inactive
CCOC(=O)c1c2ccc(OCC(=O)NN)cc2n2ccccc12	Mannose-6-phosphate isomerase (Homo sapiens)	active
O=C(CSc1nc(-c2ccccc2)nc2ccccc12)Nc1cccc(C(=O)O)c1	Mannose-6-phosphate isomerase (Homo sapiens)	inactive
CC(=O)Nc1ccc(S(=O)(=O)NNC(=O)COc2ccc(C)cc2)cc1	Mannose-6-phosphate isomerase (Homo sapiens)	inactive
O=C(Oc1ccc(C(=S)N2CCOCC2)cc1)c1ccc(Br)cc1	Mannose-6-phosphate isomerase (Homo sapiens)	inactive
Cc1onc(-c2ccccc2Cl)c1C(=O)NC(=S)NCCc1ccccc1	Mannose-6-phosphate isomerase (Homo sapiens)	inactive
COc1ccc(S(=O)(=O)n2nc(OC(C)=O)cc2N)cc1	Mannose-6-phosphate isomerase (Homo sapiens)	inactive
COc1ccc(C(=O)Oc2ccc(C(=S)N3CCOCC3)cc2)cc1	Mannose-6-phosphate isomerase (Homo sapiens)	active
COC(=O)Cc1c(C)nc2nc(-c3ccco3)[nH]n2c1=O	Mannose-6-phosphate isomerase (Homo sapiens)	inactive
S=C(NCCCn1ccnc1)Nc1ccc(Cl)cc1Cl	Mannose-6-phosphate isomerase (Homo sapiens)	inactive
O=C(NCc1ccccc1)c1sc(=S)n2c1[nH]c(=O)c1ccccc12	Mannose-6-phosphate isomerase (Homo sapiens)	inactive
O=C(CSc1nc2ccc(Cl)cc2[nH]1)NCc1ccco1	Mannose-6-phosphate isomerase (Homo sapiens)	inactive
Nc1c(C(=O)N2CCCC2)sc2nc3c(cc12)CCCCCC3	Mannose-6-phosphate isomerase (Homo sapiens)	active
N#Cc1ccc(NC(=S)NC(=O)CCc2ccc(S(=O)(=O)N3CCOCC3)cc2)cc1	Mannose-6-phosphate isomerase (Homo sapiens)	inactive
O=S1(=O)CCN2C(c3cccc4ccccc34)=CSC2=N1	Mannose-6-phosphate isomerase (Homo sapiens)	inactive
CC(=O)c1c(C)[nH]c(C(=O)O)c1C	Mannose-6-phosphate isomerase (Homo sapiens)	inactive
CCOC(=O)c1c2ccc(OCC(=O)N/N=C/c3ccccc3C(F)(F)F)cc2n2ccccc12	Mannose-6-phosphate isomerase (Homo sapiens)	active
COc1ccc([C@@H]2C[C@H]3CN(c4ccccc4)C(=O)[C@]34CCCN24)c(OC)c1OC	Mannose-6-phosphate isomerase (Homo sapiens)	inactive
Cc1ccc2c(c1)cc(CN(Cc1ccc3c(c1)OCO3)S(=O)(=O)c1ccccc1)c1nnnn12	Mannose-6-phosphate isomerase (Homo sapiens)	inactive
O=C(NCc1ccncc1)Nc1cc(Cl)ccc1Cl	Mannose-6-phosphate isomerase (Homo sapiens)	inactive
O=C(CCn1c(=S)oc2ccccc21)Nc1cccc(F)c1	Mannose-6-phosphate isomerase (Homo sapiens)	inactive
O=C(N/N=C/c1c[nH]c2ccccc12)c1sc2ccccc2c1Cl	Mannose-6-phosphate isomerase (Homo sapiens)	inactive
COc1ccc(C=Nc2ccc3[nH]ncc3c2)c(O)c1	Mannose-6-phosphate isomerase (Homo sapiens)	inactive
CCOC(=O)c1ccc(N2C(=O)CC(N(C)CCc3ccc(OC)c(OC)c3)C2=O)cc1 (configuration not stated)	Mannose-6-phosphate isomerase (Homo sapiens)	inactive
CC(=O)c1[nH]c(C)c(C(C)=O)c1C	Mannose-6-phosphate isomerase (Homo sapiens)	inactive
Cc1ccc(Cl)cc1NC(=O)N[C@@H](C)C(=O)O	Mannose-6-phosphate isomerase (Homo sapiens)	inactive
COc1ccc(OC)c(NC(=O)CN2C(=O)C3(OCCCO3)c3ccccc32)c1	Mannose-6-phosphate isomerase (Homo sapiens)	inactive
CC(=O)c1c(C(=O)O)[nH]c(C(=O)O)c1C	Mannose-6-phosphate isomerase (Homo sapiens)	active
Oc1ccccc1/C=N/N1CCCCC1	Mannose-6-phosphate isomerase (Homo sapiens)	inactive
CCN(CC1COc2ccccc2O1)C(=S)Nc1ccccc1 (configuration not stated)	Mannose-6-phosphate isomerase (Homo sapiens)	inactive
COC(=O)c1ccc(C)c(NC(=O)CCc2ccc(OC)cc2)c1	Mannose-6-phosphate isomerase (Homo sapiens)	inactive
C=C(C)CSc1nnc2n(N)c(=O)c3ccccc3n12	Mannose-6-phosphate isomerase (Homo sapiens)	inactive
Cn1c(=O)c2c(nc(CN3CCOCC3)n2CCCO)n(C)c1=O	Mannose-6-phosphate isomerase (Homo sapiens)	inactive
Cc1ccc(O)c(C=Nc2ccc3[nH]ncc3c2)c1	Mannose-6-phosphate isomerase (Homo sapiens)	active
Cc1ccc(N(C(C)C(=O)Nc2c(C)n(C)n(-c3ccccc3)c2=O)S(C)(=O)=O)cc1C (configuration not stated)	Mannose-6-phosphate isomerase (Homo sapiens)	inactive
COc1ccc(C(C(=O)NC2CCCC2)N(Cc2cccs2)C(=O)c2ccn[nH]2)cc1OC (configuration not stated)	Mannose-6-phosphate isomerase (Homo sapiens)	inactive
COC(=O)c1sc2nc3c(cc2c1N)CCCC3	Mannose-6-phosphate isomerase (Homo sapiens)	inactive
Cc1ccc(O)c(/C=N/NC(=O)c2[nH]ncc2Br)c1	Mannose-6-phosphate isomerase (Homo sapiens)	inactive
NC(=O)c1nn(CC(=O)Nc2ccc3c(c2)OCO3)cc1[N+](=O)[O-]	Mannose-6-phosphate isomerase (Homo sapiens)	inactive
c1ccc2c(c1)nc(N1CCN(C3CCCCC3)CC1)c1nnnn12	Mannose-6-phosphate isomerase (Homo sapiens)	inactive
O=C(NC1CCCC1)c1sc(=S)n2c1[nH]c(=O)c1ccccc12	Mannose-6-phosphate isomerase (Homo sapiens)	inactive
OC(CNCc1ccccc1)Cn1ccc2ccccc21 (configuration not stated)	Mannose-6-phosphate isomerase (Homo sapiens)	inactive
COc1ccc2[nH]cc(CCn3ccc(=O)c(C)c3C)c2c1	Mannose-6-phosphate isomerase (Homo sapiens)	inactive
